# system: T1, recombinant human Tau monomer, 2N4R isoform (amino acids 2-441) (human, UniProt P10636-8 2-441)
# T1 construct: range 2-441; N-terminal His-tag removed with TEV protease; also called monomeric Tau
# T1 sequence (P10636 other isoform, or with tags, fused parts or gaps limits assumed): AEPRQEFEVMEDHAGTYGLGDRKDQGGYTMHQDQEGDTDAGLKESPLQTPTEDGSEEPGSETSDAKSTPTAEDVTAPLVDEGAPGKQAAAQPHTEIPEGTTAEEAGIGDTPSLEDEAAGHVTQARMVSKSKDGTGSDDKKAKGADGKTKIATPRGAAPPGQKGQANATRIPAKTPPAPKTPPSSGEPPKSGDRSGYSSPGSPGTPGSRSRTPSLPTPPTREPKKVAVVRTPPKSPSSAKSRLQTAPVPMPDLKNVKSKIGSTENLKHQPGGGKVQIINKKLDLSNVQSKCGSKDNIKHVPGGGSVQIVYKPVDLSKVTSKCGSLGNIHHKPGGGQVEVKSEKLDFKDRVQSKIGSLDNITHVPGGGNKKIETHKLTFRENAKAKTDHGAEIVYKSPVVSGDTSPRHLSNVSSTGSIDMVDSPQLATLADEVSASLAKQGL
# protocol-details: SPR; Normalized Rmax post-stress (2 weeks 40 C) / pre-stress
Binary label based on Stability Index with cut-off 80%: below gives y, not below gives n.

Observe how each entry below is paired with its result.
hu37D3.v28.F2 (antibody, V domains shown) VH: EVQLVESGGGLVQPGGSLRLSCAASGLIFRSYGMSWVRQAPGKGLEWVATINSGGTYTYYPDSVKGRFTISRDNSKNTLYLQMNSLRAEDTAVYYCANSYSGAMDYWGQGTLVTVSS VL: DDVLTQTPLSLPVTPGQPASISCRSSQSIVHTNGNTYFEWYLQKPGQSPQLLIYKVSNRFSGVPDRFSGSGSGTDFTLKISRVEAEDVGVYYCFQGSLVPWTFGQGTKVEIK	y
hu37D3-H9.v31.12 (antibody, V domains shown) VH: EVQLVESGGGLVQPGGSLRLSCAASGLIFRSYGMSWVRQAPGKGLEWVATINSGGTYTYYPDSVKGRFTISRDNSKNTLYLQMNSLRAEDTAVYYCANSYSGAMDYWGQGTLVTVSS VL: DDVLTQTPLSLPVTPGQPASISCRSSQSIVHSNANYYFEWYLQKPGQSPQLLIYKVSNRFSGVPDRFSGSGSGTDFTLKISRVEAEDVGVYYCFQGSLVPWTFGQGTKVEIK	n
hu37D3.v28.C2 (antibody, V domains shown) VH: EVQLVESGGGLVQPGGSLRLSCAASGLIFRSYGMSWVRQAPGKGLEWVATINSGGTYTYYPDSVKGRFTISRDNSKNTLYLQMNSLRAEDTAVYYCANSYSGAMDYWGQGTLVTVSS VL: DDVLTQTPLSLPVTPGQPASISCRSSQSIVHSNDNTYFEWYLQKPGQSPQLLIYKVSNRFSGVPDRFSGSGSGTDFTLKISRVEAEDVGVYYCFQGSLVPWTFGQGTKVEIK	y
hu37D3.v29.3 (antibody, V domains shown) VH: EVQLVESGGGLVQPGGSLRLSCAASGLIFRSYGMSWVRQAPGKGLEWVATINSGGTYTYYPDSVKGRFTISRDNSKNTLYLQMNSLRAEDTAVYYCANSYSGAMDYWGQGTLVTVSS VL: EDVLTQTPLSLPVTPGQPASISCRSSQSIVHSNGETYFEWYLQKPGQSPQLLIYKVSNRFSGVPDRFSGSGSGTDFTLKISRVEAEDVGVYYCFQGSLVPWTFGQGTKVEIK	n

Attention now shifts to the item below.
[ask] Given the entry hu37D3.v28.B4 (antibody, V domains shown) VH: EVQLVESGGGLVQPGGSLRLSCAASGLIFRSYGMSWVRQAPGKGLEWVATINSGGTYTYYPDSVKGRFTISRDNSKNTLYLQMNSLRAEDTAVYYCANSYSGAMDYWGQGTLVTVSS VL: DDVLTQTPLSLPVTPGQPASISCRSSQSIVHSQGNTHFEWYLQKPGQSPQLLIYKVSNRFSGVPDRFSGSGSGTDFTLKISRVEAEDVGVYYCFQGSLVPWTFGQGTKVEIK , would its reported Stability Index be below 80%?
[reply] n
